experiment: protein stability index of a GFP-peptide fusion (GPS, HEK-293T) (PSI 1-6); higher = more stable; settings: treatment: DMSO; c terminus: a fixed tail appended;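 also: 24-mer peptide tiles fused after GFP, lentivirally expressed, FACS-sorted into six equal bins by GFP/DsRed ratio, decoded by Illumina sequencing, PSI is the read-weighted mean bin number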
MEASURE: protein stability index
Numbers only.

Here are 2 sequences together with their reported answers.
>  <MACROMOLECULE SEQUENCE>
EAAAAEEGLRELQRSRRLCHEDVE [DAPK3]

>  <protein stability index>
5.29

$$$$
>  <MACROMOLECULE SEQUENCE>
LTVQFVQGIFVEKYDPTIEDSYRK [RAP1B]

>  <protein stability index>
2.17

$$$$

Return reported protein stability index values for all items listed beneath this line.
1. GNPRALSFVLSSLQLGEGVEFDVL [OAS1]
2. NPKLPNISLDVLQPSFPEILLESH [POMT2]
3. CQYEALVENNRRDVEAWFNTQTEE [KRT36]
4. SAHRALYRRHVLGIVLQGPALCFA [TMEM175]
5. LVLPLVPELLSTHPFFDTAEPDMD [INTS4]

1. 2.29
2. 3.52
3. 2.86
4. 2.71
5. 2.56

###

assay: protein stability index of a GFP-peptide fusion (GPS, HEK-293T) (PSI 1-6); higher = more stable; conditions: treatment: DMSO; c terminus: a fixed tail appended
MEASURE: protein stability index
Answers are plain numbers.

>  <MACROMOLECULE SEQUENCE>
QPPLSATVTLTVAVADSIPQVLAD [PCDHGA10]

>  <protein stability index>
2.56

$$$$
>  <MACROMOLECULE SEQUENCE>
TQGCHPAWEPRSESQASRKEEGLP [ZNF8]

>  <protein stability index>
4.89

$$$$
>  <MACROMOLECULE SEQUENCE>
NVEMDAAPGVDLSRILNEMRDQYE [KRT16]

>  <protein stability index>
4.34

$$$$
>  <MACROMOLECULE SEQUENCE>
DPQNGFDVNNLDPDLRSLFSRAGI [WAS]

>  <protein stability index>
3.93

$$$$
>  <MACROMOLECULE SEQUENCE>
MLKAEETCAPSVSYFKCVQKEVLP [CCND1]

>  <protein stability index>
3.52

$$$$
>  <MACROMOLECULE SEQUENCE>
TSPAKDSLSFEDFLDLLSVFSDTA [CIB1]

>  <protein stability index>
2.28

$$$$

Return reported protein stability index values for all items listed beneath this line.
1. LVSWLPRLNAYRGYCSNQLAAKAL [NET1]
2. YGQFTCEGCKSFFKRSVRRNLSYT [NR2F2]
3. QPKKPEDEPQETAYRTQVSSCCLH [PKD2L1]
4. RLPESVERLTGVSISQVNHKPLRT [FLOT1]

[2.5, 2.33, 4.88, 4.06]

Return reported protein stability index values for all items listed beneath this line.
1. AKAADSPTRNDLESGLGHFSLRVH
2. ICQGDGSSCTHVTGNYRKGNAHLG [ADAMTSL2]
3. VPQIFKYGETCFPKGRFERKRNPS [ZNF24]

[3.19, 3.74, 3.8]

###

test: protein stability index of a GFP-peptide fusion (GPS, HEK-293T) (PSI 1-6); higher = more stable; settings: treatment: MLN4924 1 uM, 8 h; c terminus: a fixed tail appended
Assign true whenever protein stability index does not fall below 3; assign false whenever it does.

>  <MACROMOLECULE SEQUENCE>
TAFCTHVFPETAFIAVTSYQNHKI [TBX5]

>  <DISCRETE LABEL>
false

$$$$
>  <MACROMOLECULE SEQUENCE>
RGFQEENKALWENNKLKLQQKLVI [CBY2]

>  <DISCRETE LABEL>
true

$$$$
>  <MACROMOLECULE SEQUENCE>
DGLPLHFFIQTVRPKDTVMCYRVR [MYORG]

>  <DISCRETE LABEL>
false

$$$$
>  <MACROMOLECULE SEQUENCE>
TQQWTAICPLKERRFGAVACGVAM [GAN]

>  <DISCRETE LABEL>
false

$$$$
>  <MACROMOLECULE SEQUENCE>
RLPESVERLTGVSISQVNHKPLRT [FLOT1]

>  <DISCRETE LABEL>
true

$$$$

In plain terms: is recorded protein stability index at least 3 for ETLEGREKAFIAHFQDNLHSVNRD [MED27] ?
true

In plain terms: is recorded protein stability index at least 3 for RAEQDSEVGPQEINKEELEGNSMR [GMCL1] ?
true

In plain terms: is recorded protein stability index at least 3 for VPSEEPQESDQTEEHESGIEQFSE [IQUB] ?
true
